- study_target: T1, human soluble ULBP2 (hULBP2) (human, UniProt Q9BZM5 26-216)
- T1 construct: also called sULBP2
- T1 sequence: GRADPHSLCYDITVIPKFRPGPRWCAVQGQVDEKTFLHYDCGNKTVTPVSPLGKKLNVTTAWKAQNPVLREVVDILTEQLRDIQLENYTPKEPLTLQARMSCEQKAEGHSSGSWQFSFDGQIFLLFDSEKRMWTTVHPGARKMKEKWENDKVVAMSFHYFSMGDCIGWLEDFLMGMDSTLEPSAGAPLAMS
- method_summary: SPR (BIACORE);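 further: soluble human and cynomolgus NKG2D ligands injected as analytes in 3-fold dilution series spanning 0.01 to 50 nM at 37 °C, reference-subtracted sensorgrams fitted to a 1:1 Langmuir model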
pKd: −log10 of the molar value.
measurement_label: pKd

>>> observed_result("Humanized 8E11 (h8E11) (E-) (antibody, human IgG1, kappa, N297G, V domains shown, hIgG1 with N297G (effector negative)) VH: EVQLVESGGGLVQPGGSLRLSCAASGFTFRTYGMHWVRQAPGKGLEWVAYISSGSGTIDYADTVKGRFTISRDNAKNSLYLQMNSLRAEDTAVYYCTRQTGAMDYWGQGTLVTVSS VL: EIVLTQSPATLSLSPGERATLSCSASSSVSYMNWYQQKPGQSPRLWIYGISNLASGVPARFSGSGSGTDFTLTISSLEPEDFAVYYCQQRSSHPLTFGGGTKVEIKR")
9.30
>>> observed_result("Humanized 1D4 (h1D4) (E-) (antibody, human IgG1, kappa, N297G, V domains shown, hIgG1 with N297G (effector negative)) VH: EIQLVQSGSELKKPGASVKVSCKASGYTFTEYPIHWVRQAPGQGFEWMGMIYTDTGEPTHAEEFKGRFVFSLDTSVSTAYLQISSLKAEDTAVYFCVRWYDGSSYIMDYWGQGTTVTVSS VL: DIQMTQSPSSLSASVGDRVTITCKASQDINSYLSWFQQKPGKSPKTLIYRANRLVDGVPSRFSGSGSGQDYTFTISSLQPEDIATYYCLQYDEFPLTFGGGTKVEIKR")
9.33
>>> observed_result("Humanized 7B3 (h7B3) (E-) (antibody, human IgG1, kappa, N297G, V domains shown, hIgG1 with N297G (effector negative)) VH: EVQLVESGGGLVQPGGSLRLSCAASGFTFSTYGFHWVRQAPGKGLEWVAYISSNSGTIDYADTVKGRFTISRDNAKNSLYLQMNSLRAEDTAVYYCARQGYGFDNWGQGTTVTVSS VL: DIQLTQSPSSLSASVGDRVTITCSASSRVSYMNWYQQKPGKSPKIWVYGISNLASGVPSRFSGSGSGTDFTFTISSLQPEDIATYYCQQRSSHPLTFGGGTKVEIKR")
9.27
